- ASSAYED_TARGET: hITK enzyme (FLAG-tagged full-length hITK) (Homo sapiens)
- Construct: strongly expressing FLAG-tagged full-length hITK in Sf9 cells; FLAG; made in house; host or cells: Sf9 insect cells (ITK); Escherichia coli (GST-SLP76 substrate)
- ASSAY_PROTOCOL: ITK inhibitory activity (HTRF kinase assay, biotinylated GST-SLP76 substrate)
- Assay type: biochemical
- ASSAY_CONTEXT: IC50 calculated from the 2 test compound concentrations sandwiching 50% ITK inhibitory rate
MEASUREMENT_NAME: IC50 (nM)

In the examples that follow, each entry is paired with its recorded IC50.
COMPOUND: COCC(=O)N(C)c1ccc2cc(-c3n[nH]c4c3CC(OC)CC4)[nH]c2c1 (centres unmarked) [Example 369]
UNIT_STRING: nM
IC50: 207

COMPOUND: CN(C)CCCN(C(=O)C1CCOC1)c1ccc2cc(-c3n[nH]c4c3CCC(C)(C)C4)[nH]c2c1 (centres unmarked) [Example 225]
UNIT_STRING: nM
IC50: 2

COMPOUND: CN(CC(=O)N(C)c1ccc2cc(-c3n[nH]c4c3CCC(C)(C)C4)[nH]c2c1)C(=O)CC(C)(C)O [Example 193]
UNIT_STRING: nM
IC50: 2

P. CC1(C)CCc2c(-c3cc4ccc(N5CCC(O)C5=O)cc4[nH]3)n[nH]c2C1 (centres unmarked) [Example 227]
Q. CN(C(=O)[C@@H](O)C1CCCCC1)c1ccc2cc(-c3n[nH]c4c3CCC(C)(C)C4)[nH]c2c1 [Example 78]
R. CN(C(=O)COC1CCCOC1)c1ccc2cc(-c3n[nH]c4c3CCC(C)(C)C4)[nH]c2c1 (centres unmarked) [Example 123]
-- ask Task field, ranking: reported IC50, descending order. Your task in answering is to list the labels in the requested order.
-- reply P, Q, R

###

- ASSAYED_TARGET: hITK enzyme (FLAG-tagged full-length hITK) (Homo sapiens)
- Construct: strongly expressing FLAG-tagged full-length hITK in Sf9 cells; FLAG; made in house; host or cells: Sf9 insect cells (ITK); Escherichia coli (GST-SLP76 substrate)
- Sequence (Q08881 1-620): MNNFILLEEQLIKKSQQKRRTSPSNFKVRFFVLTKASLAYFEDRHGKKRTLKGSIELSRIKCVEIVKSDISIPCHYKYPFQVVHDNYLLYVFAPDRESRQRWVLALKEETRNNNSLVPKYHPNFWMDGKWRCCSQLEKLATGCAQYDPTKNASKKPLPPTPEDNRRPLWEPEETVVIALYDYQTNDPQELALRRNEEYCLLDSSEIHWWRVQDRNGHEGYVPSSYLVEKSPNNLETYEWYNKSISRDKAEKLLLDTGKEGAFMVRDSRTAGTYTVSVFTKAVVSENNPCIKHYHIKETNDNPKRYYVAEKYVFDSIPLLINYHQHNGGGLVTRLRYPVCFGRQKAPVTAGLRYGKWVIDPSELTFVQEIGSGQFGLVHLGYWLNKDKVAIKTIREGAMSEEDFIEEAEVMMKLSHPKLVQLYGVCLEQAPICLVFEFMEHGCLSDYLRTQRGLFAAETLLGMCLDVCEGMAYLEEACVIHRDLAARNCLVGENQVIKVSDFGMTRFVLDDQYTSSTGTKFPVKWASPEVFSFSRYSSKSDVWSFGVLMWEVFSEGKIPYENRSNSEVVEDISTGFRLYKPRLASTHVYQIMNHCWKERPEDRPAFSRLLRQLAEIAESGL
- ASSAY_PROTOCOL: ITK inhibitory activity (HTRF kinase assay, biotinylated GST-SLP76 substrate)
- Assay type: biochemical
- ASSAY_CONTEXT: IC50 calculated from the 2 test compound concentrations sandwiching 50% ITK inhibitory rate
MEASUREMENT_NAME: IC50 (nM)

MOLECULE: CN(C(=O)[C@H]1CCCN1C)c1ccc2cc(-c3n[nH]c4c3CCC(C)(C)C4)[nH]c2c1 [Example 149]
IC50 / nM: 10

MOLECULE: CN(CC(=O)N(C)c1ccc2cc(-c3n[nH]c4c3CCC(C)(C)C4)[nH]c2c1)C(=O)C(C)(C)C [Example 179]
IC50 / nM: 1

MOLECULE: CN(C(=O)c1ccccc1)c1ccc2cc(-c3n[nH]c4c3CC(O)CC4)[nH]c2c1 (stereo not shown) [Example 367]
IC50 / nM: 75

a. CCN(c1ccc2cc(-c3n[nH]c4c3CCC(C)(C)C4)[nH]c2c1)C(=O)[C@H]1CC[C@@H](O)CC1 [Example 258]
b. CN(C(=O)CCN1CCCCC1=O)c1ccc2cc(-c3n[nH]c4c3CCC(C)(C)C4)[nH]c2c1 [Example 141]
-- ask Of the two listed items, a and b , which carries the larger IC50 figure? Respond with the label that goes with your answer.
-- reply b
(b: 10 nM, a: 4 nM)

A. CN(C(=O)CN1CCC(O)CC1)c1ccc2cc(-c3n[nH]c4c3CCC(C)(C)C4)[nH]c2c1 [Example 107]
B. CN(C(=O)CN1CCCCC1=O)c1ccc2cc(-c3n[nH]c4c3CCC(C)(CO)C4)[nH]c2c1 (stereo not shown) [Example 8]
-- ask # min-compare on IC50 between A and B Respond with the label that goes with your answer.
-- reply B
